Below, each of the compounds is paired with its reported IC50 value.
# Test system: HCC1954 cells
# test_protocol: Inhibition of HCC1954 cell growth (method analogous to BT-474)
# Format: cell-based
# experimental_context: Homo sapiens
Your reply should be a number followed by the unit it is expressed in.

Solved cases (3 shown):
| compound | IC50 |
| --- | --- |
| C/C=C(\C)[C@H]1OC(=O)[C@@H](C)NC(=O)[C@H]([C@H](C)CC)NC(=O)CN(C)C(=O)[C@@H](Cc2ccccc2)N(C)C(=O)[C@H](C)NC(=O)[C@@H](CC(C)C)OC(=O)/C(C)=C/C[C@H](OC(=O)NCCCCCCCCCCCCO)[C@@H]1C [Compound 13] | 18.1 nM |
| C/C=C(\C)[C@H]1OC(=O)[C@@H](C)NC(=O)[C@H]([C@H](C)CC)NC(=O)CN(C)C(=O)[C@@H](Cc2ccc(Cl)cc2)N(C)C(=O)[C@H](C)NC(=O)[C@@H](CC(C)C)OC(=O)/C(C)=C/C[C@H](OC(=O)NCCc2ccc(O)cc2)[C@@H]1C [Compound 18] | 2.37 nM |
| C/C=C(\C)[C@H]1OC(=O)[C@@H](C)NC(=O)[C@H]([C@H](C)CC)NC(=O)CN(C)C(=O)[C@@H](Cc2ccccc2)N(C)C(=O)[C@H](C)NC(=O)[C@@H](CC(C)C)OC(=O)/C(C)=C/C[C@H](OC(=O)N(C)CCCCCCNC)[C@@H]1C [Compound 8] | 31.9 nM |

# IC50 of C/C=C(\C)[C@H]1OC(=O)C(C)(C)NC(=O)[C@H](C(C)CC)NC(=O)CN(C)C(=O)[C@@H](Cc2ccc(Cl)cc2)N(C)C(=O)[C@H](C)NC(=O)[C@@H](CC(C)C)OC(=O)/C(C)=C/C[C@H](OC(=O)NCCCCCO)[C@@H]1C (stereo partly shown) [Compound 22] = 7.26 nM

====

Below, each of the compounds is paired with its reported IC50 value.
# System: HCC1954 cells
# test_protocol: Inhibition of HCC1954 cell growth (method analogous to BT-474)
# Format: cell-based
# experimental_context: Homo sapiens
Lab book: enter the figure in nM, no units written.

| compound | IC50, nM |
| --- | --- |
| C/C=C(\C)[C@H]1OC(=O)[C@@H](C)NC(=O)[C@H]([C@H](C)CC)NC(=O)CN(C)C(=O)[C@@H](Cc2ccccc2)N(C)C(=O)[C@H](C)NC(=O)[C@@H](CC(C)C)OC(=O)/C(C)=C/C[C@H](OC(=O)NCc2ccc(CO)cc2)[C@@H]1C [Compound 12] | 3.29 |
| C/C=C(\C)[C@H]1OC(=O)[C@@H](C)NC(=O)[C@H](C(C)CC)NC(=O)CN(C)C(=O)[C@@H](Cc2ccccc2)N(C)C(=O)[C@H](C)NC(=O)[C@@H](CC(C)C)OC(=O)/C(C)=C/C[C@H](OC(=O)NCCCCCCCO)[C@@H]1C (stereo partly drawn) [Compound 5] | 1.11 |
| C/C=C(\C)[C@H]1OC(=O)[C@@H](C)NC(=O)[C@H]([C@H](C)CC)NC(=O)CN(C)C(=O)[C@@H](Cc2ccccc2)N(C)C(=O)[C@H](C)NC(=O)[C@@H](CC(C)C)OC(=O)/C(C)=C/C[C@H](OC(=O)NCCCO)[C@@H]1C [Compound 1] | 0.457 |

Known value: HCC1954 cells IC50 of the compound C/C=C(\C)[C@H]1OC(=O)[C@@H](C)NC(=O)[C@H]([C@H](C)CC)NC(=O)CN(C)C(=O)[C@@H](Cc2ccccc2)N(C)C(=O)[C@H](C)NC(=O)[C@@H](CC(C)C)OC(=O)/C(C)=C/C[C@H](OC(=O)NCCc2ccc(O)cc2)[C@@H]1C [Compound 10] equals 1.36

Known value: HCC1954 cells IC50 of the compound C/C=C(\C)[C@H]1OC(=O)[C@@H](C)NC(=O)[C@H]([C@H](C)CC)NC(=O)CN(C)C(=O)[C@@H](Cc2ccc(Cl)cc2)N(C)C(=O)[C@H](C)NC(=O)[C@@H](CC(C)C)OC(=O)/C(C)=C/C[C@H](OC(=O)NCCCCCO)[C@@H]1C [Compound 16] equals 0.1

Known value: HCC1954 cells IC50 of the compound C/C=C(\C)[C@H]1OC(=O)[C@@H](C)NC(=O)[C@H](C(C)CC)NC(=O)CN(C)C(=O)[C@@H](Cc2ccccc2)N(C)C(=O)[C@H](C)NC(=O)[C@@H](CC(C)C)OC(=O)/C(C)=C/C[C@H](OC(=O)NCCCCCCO)[C@@H]1C (stereo partly drawn) [Compound 4] equals 3.21

Known value: HCC1954 cells IC50 of the compound C/C=C(\C)[C@H]1OC(=O)[C@@H](C)NC(=O)[C@H]([C@H](C)CC)NC(=O)CN(C)C(=O)[C@@H](Cc2ccccc2)N(C)C(=O)[C@H](C)NC(=O)[C@@H](CC(C)C)OC(=O)/C(C)=C/C[C@H](OC(=O)N2CCN(CCO)CC2)[C@@H]1C [Compound 9] equals 0.25

Known value: HCC1954 cells IC50 of the compound C/C=C(\C)[C@H]1OC(=O)C(C)(C)NC(=O)[C@H]([C@H](C)CC)NC(=O)CN(C)C(=O)[C@@H](Cc2ccc(Cl)cc2)N(C)C(=O)[C@H](C)NC(=O)[C@@H](CC(C)C)OC(=O)/C(C)=C/C[C@H](OC(=O)N2CCN(CCO)CC2)[C@@H]1C [Compound 26] equals 1.36

Where do the numbers come from? From patent US11254705B2.
